# studyTarget: Ba/F3-KDR-transfected cells (Homo sapiens, UniProt P35968)
# Construct: BAF3-KDR (MIN IL3) pIC50; other: minus IL3
# Sequence (P35968 whole entry, change not shown): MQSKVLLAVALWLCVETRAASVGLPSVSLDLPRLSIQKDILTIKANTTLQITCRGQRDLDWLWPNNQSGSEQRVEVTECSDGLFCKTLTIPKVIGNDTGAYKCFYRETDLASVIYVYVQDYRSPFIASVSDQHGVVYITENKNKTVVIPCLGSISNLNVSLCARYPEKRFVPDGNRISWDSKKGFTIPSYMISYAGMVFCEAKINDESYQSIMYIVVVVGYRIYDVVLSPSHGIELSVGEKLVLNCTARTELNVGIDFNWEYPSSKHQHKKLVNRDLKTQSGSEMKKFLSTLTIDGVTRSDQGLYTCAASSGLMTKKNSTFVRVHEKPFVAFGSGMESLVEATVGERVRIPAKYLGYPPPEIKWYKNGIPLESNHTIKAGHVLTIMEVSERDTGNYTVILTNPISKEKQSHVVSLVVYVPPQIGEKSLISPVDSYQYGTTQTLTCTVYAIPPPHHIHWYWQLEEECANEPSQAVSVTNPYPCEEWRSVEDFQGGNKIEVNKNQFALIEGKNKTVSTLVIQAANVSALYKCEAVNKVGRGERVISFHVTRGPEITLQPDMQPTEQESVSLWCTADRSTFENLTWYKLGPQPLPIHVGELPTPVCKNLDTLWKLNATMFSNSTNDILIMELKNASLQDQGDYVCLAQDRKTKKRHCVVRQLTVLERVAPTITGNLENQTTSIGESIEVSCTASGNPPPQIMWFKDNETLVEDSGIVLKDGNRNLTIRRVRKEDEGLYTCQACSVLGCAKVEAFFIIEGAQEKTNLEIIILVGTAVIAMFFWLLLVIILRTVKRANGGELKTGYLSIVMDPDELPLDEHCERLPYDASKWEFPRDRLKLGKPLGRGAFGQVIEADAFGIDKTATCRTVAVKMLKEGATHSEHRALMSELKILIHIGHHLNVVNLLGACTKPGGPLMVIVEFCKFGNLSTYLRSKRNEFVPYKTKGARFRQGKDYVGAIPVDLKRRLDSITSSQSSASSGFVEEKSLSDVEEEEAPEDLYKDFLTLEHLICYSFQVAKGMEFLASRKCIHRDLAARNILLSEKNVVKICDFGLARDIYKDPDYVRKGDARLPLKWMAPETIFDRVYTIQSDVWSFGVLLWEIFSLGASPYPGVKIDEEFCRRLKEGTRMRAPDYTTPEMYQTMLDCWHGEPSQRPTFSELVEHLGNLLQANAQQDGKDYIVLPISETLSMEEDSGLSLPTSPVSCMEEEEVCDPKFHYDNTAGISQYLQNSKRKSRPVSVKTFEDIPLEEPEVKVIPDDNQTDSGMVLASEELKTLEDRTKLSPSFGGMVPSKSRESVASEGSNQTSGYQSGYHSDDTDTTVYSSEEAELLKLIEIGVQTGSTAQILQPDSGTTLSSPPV
# experimentSummary: Ba/F3-KDR (minus IL3) cellular proliferation assay, Alamar Blue
# Assay type: cell-based
# key: entry, value: BAF3-KDR (MIN IL3) pIC50
// return a plain number; no unit text

• COc1cc(OC)c(F)c(N(CC(O)COC(C)C)c2ccc3ncc(-c4cnn(CC(O)COC(C)C)c4)nc3n2)c1 (single isomer, unassigned) = 5.67
• COc1cc(OC)cc(N(c2ccc3ncc(-c4cnn(C)c4)nc3n2)C(C)c2ncc[nH]2)c1 (centres unmarked) = 6.03
• COc1cc(OC)c(F)c(N(Cc2nccn2CCO)c2ccc3ncc(-c4cnn(C)c4)nc3n2)c1 = 5.63
• COc1cc(OC)c(F)c(N(CC(O)c2cnn(C)c2)c2ccc3ncc(-c4cnn(C)c4)nc3n2)c1 (centres unmarked) = 5.03
• COc1cc(OC)c(F)c(N(Cc2ncc[nH]2)c2ccc3ncc(-c4cnn(CCCN)c4)nc3n2)c1 = 6.45
• COc1cc(/N=c2\ccc3ncc(-c4cnn(C)c4)nc3n2CCCN2CCCC2=O)cc(OC)c1 = 6.39

# lookup: COc1cc(/N=c2\ccc3ncc(-c4cnn(C)c4)nc3n2CC2CCC(=O)N2)c(F)c(OC)c1 (centres unmarked) [Compound 53] on Ba/F3-KDR-transfected cells (Homo sapiens, UniProt P35968), BAF3-KDR (MIN IL3) pIC50 = 5.99

# lookup: `COc1cc(OC)c(Cl)c(N(Cc2ncc[nH]2)c2ccc3ncc(-c4cnn(C)c4)nc3n2)c1Cl` on Ba/F3-KDR-transfected cells (Homo sapiens, UniProt P35968), BAF3-KDR (MIN IL3) pIC50 = 6.19
